- test_protocol: Microsomal stability, human liver microsomes (predicted hepatic clearance)
- measurement_setup: predicted from in vitro microsomal stability data
measurement_type: Predicted Hepatic Clearance (Pred. Cl.) (mL/min/kg)
Express your answer in mL/min/kg, writing the number without its unit.

Below, 4 compounds whose answers are already recorded.
> print(dat)
                                   compound                         measurement.type  measurement.unit  result
1  COC(Cn1c(Cc2ccc(-c3cccc(OCc4ccc(C#N)cc4F)n3)cc2F)nc2ccc(C(=O)O)cc21)C(N)=O (single isomer, unassigned) [Example 334]  Predicted Hepatic Clearance (Pred. Cl.)         mL/min/kg     3.3
2  CC(C)(Cn1c(Cc2cc(F)c(-c3cccc(OCc4ccc(C#N)cc4F)n3)cc2F)nc2ccc(C(=O)O)cc21)OC(F)F [Example 721]  Predicted Hepatic Clearance (Pred. Cl.)         mL/min/kg    7.83
3  COCCn1c(Cc2cc(F)c(-c3cccc(OCc4ccc(C#N)cc4F)n3)cc2Cl)nc2ccc(C(=O)O)cc21 [Example 304]  Predicted Hepatic Clearance (Pred. Cl.)         mL/min/kg    5.33
4  COCCn1c(C(C)c2ccc(-c3cccc(OCc4ccc(C#N)cc4F)n3)cc2)nc2ccc(C(=O)O)cc21 (single isomer, unassigned) [Example 439]  Predicted Hepatic Clearance (Pred. Cl.)         mL/min/kg       6

Predicted Hepatic Clearance (Pred. Cl.) for N#Cc1ccc(COc2cccc(-c3cc(F)c(Cc4nc5ccc(C(=O)O)cc5n4C[C@@H]4COCCO4)cc3F)n2)c(F)c1 [Example 642] ?
2.67

Now the same for Cc1csc(NCCn2c(Cc3cc(F)c(-c4ccnc(OCc5ccc(C#N)cc5F)n4)cc3F)nc3ccc(C(=O)O)cc32)n1 [Example 832]
14.3

Now the same for COCCn1c(Cc2cc(F)c(-c3cccc(OCc4ccc(CC#N)cc4)n3)cc2F)nc2ccc(C(=O)O)cc21 [Example 817]
9

Now the same for N#Cc1ccc(COc2cccc(-c3ccc(Cc4nc5ccc(C(=O)O)cc5n4C[C@@H]4CCO4)cc3F)n2)cn1 [Example 656]
4.67

Now the same for COCCn1c(Cc2ccc(-c3cccc(OCc4ccc(C#N)cc4F)n3)cc2F)nc2c(OC)cc(C(=O)O)cc21 [Example 345]
3.83
